Biological target: T1, native IL-5R α/β complex on cells (TF-1 cells; human eosinophils) (human, UniProt Q01344 21-420; P32927 17-897)
T1 sequence (looked up) 1: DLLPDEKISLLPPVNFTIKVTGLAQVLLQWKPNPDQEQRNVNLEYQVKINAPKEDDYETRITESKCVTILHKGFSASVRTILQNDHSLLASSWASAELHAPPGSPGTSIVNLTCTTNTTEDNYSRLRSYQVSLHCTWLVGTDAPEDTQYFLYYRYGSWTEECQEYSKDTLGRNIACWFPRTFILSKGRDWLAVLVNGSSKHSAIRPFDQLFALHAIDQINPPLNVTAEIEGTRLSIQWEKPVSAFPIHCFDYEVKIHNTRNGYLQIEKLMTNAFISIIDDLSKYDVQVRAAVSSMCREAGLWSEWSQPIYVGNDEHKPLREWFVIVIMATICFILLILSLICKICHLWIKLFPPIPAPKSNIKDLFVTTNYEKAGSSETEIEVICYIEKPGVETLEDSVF
T1 sequence (looked up) 2: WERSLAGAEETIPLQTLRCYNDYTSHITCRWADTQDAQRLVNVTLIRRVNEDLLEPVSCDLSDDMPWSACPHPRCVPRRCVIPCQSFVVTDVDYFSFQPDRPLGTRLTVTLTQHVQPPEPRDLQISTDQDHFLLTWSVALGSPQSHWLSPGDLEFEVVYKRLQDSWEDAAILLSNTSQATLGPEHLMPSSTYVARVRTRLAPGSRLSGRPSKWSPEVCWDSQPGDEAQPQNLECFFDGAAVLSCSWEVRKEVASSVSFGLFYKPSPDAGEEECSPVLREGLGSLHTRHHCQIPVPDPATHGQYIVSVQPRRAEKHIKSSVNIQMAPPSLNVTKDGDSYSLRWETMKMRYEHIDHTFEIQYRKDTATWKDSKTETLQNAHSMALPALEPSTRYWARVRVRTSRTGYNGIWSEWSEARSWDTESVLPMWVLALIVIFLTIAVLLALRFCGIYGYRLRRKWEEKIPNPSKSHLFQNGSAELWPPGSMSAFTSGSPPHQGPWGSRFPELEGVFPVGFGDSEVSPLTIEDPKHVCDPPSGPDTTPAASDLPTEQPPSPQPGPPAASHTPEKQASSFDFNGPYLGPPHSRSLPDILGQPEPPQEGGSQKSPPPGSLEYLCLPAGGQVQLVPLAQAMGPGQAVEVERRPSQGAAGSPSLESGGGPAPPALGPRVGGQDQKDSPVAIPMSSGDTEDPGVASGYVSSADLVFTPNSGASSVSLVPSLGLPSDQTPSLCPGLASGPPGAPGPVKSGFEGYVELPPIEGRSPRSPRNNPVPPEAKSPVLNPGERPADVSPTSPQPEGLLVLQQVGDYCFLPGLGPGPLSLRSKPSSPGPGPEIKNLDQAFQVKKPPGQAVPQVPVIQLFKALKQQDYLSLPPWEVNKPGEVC
Assay: cell-based or functional assay
measurement-type: Microphysiometer pIC50 (block of the TF-1 cell response to IL-5)

Ac-EGYVCVEWARCPTCK-NH2 (disulfide (positions not given here); also: dimer, intramolecular and intermolecular disulfide linkages, places not given here) [dimer of (Ac)-EGYVCVEWARCPTCK-(NH2)]: 8.5
H-EGYVCVEWARCPTCR-OH (disulfide (positions not given here); also: dimer, intramolecular and intermolecular disulfide linkages, places not given here) [dimer of (H)-EGYVCVEWARCPTCR-(OH)]: 9.6
Ac-EGYVCVEWARCPTCR-NH2 (disulfide (positions not given here); also: dimer, intramolecular and intermolecular disulfide linkages, places not given here) [dimer of (Ac)-EGYVCVEWARCPTCR-(NH2)]: 8.4
